Here, each record is paired with measured kon data.
- experimental-system: T1, Histidine-tagged human 4-1BB protein (h4-1BB-His) (human, UniProt Q07011 24-186)
- T1 construct: not shown: histidine tag
- measurement-description: SPR (Biacore T200), antibody on Protein A chip, h4-1BB-His injected;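 further: dissociation phase followed for 300 s, Kd derived as koff divided by kon from the kinetic fit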
Reply numerically in M⁻¹ s⁻¹, unit not repeated.

INSERT INTO assay_data (binder, observed_measurement) VALUES
  ('1C4-H2K4-IgG4 (antibody, V domains shown, humanized) VH: QVQMVQSGAEVKKPGASVKLSCKASGFTFSSSYINWLRQAPGQSLEWIGWIFAGTGGTYYNQKFTGRVQITRDTSASTAYMELSSLRSEDTAIYYCARHSPRATLFDFWGQGTTLTVSS VL: EIVLTQSPATLSASPGERVTMSCRASSSVNHMHWYQQRPGFSPRAWIYATSNLASGIPARFSGSGSGTSYSLTISSLEPEDFATYYCQQWSSNPYTFGGGTKLEIK', 25200);

# evaluate next
Return the recorded kon value; entry: 1C4-H2K3-IgG4 (antibody, V domains shown, humanized) VH: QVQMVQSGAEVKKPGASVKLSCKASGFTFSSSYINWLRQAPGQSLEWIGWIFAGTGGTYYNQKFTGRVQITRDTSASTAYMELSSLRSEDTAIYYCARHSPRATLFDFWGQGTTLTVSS VL: EIVLTQSPATLSLSPGERATMSCRASSSVNHMHWYQQKPGFSPRAWIYATSNLASGIPARFSGSGSGTSFTLTISSLEPEDFATYYCQQWSSNPYTFGGGTKLEIK
28500
